meta.source: patent US20240343761A1

Test: Rat plasma stability (half-life in vitro)
Type: in vitro ADME
Settings: male, Sprague-Dawley, rat, plasma, Table I; rat plasma, 37° C., up to 24 h
Bridge positions count the residues as written; N and C are the ends. Square brackets hold non-standard residues; d marks the D form. Peptide text beside a SMILES is read from it. AllylGly = C=CC[C@H](N)C(=O)O; pGlu = O=C1CC[C@@H](C(=O)O)N1; Nle = CCCC[C@H](N)C(=O)O
Form field: half-life at 0.182 mM (one value per entry).
propertyMeasured: half-life at 0.182 mM (min)

CC(C)C[C@@H]1NC(=O)[C@H](CCCNC(=N)N)NC(=O)[C@@H](N)CC=CC[C@@H](C(=O)N[C@@H](CCCCN)C(=O)NCC(=O)N2CCC[C@H]2C(=O)N[C@@H](Cc2ccc(OCc3ccccc3)cc2)C(=O)O)NC(=O)[C@H](CO)NC1=O [Compound 37, NH2-c[X-R-L-S-X]c-K-G-P-TyrOBn]    30
CC(C)C[C@@H]1NC(=O)[C@H](CCCNC(=N)N)NC(=O)[C@@H](N)CC=CC[C@@H](C(=O)N[C@@H](CCCCN)C(=O)NCC(=O)N2CCC[C@H]2C(=O)N[C@@H](C)C(=O)O)NC(=O)[C@H](CO)NC1=O [Compound 34, NH2-c[X-R-L-S-X]c-K-G-P-Ala] (H-[AllylGly]RLS[AllylGly]KGPA-OH; staple 1-5)    48
CC(C)C[C@@H]1NC(=O)[C@H](CCCNC(=N)N)NC(=O)[C@@H](N)CC=CC[C@@H](C(=O)N[C@@H](CCCCN)C(=O)NCC(=O)N2CCC[C@H]2C(=O)N[C@@H](Cc2ccc(OCc3ccccc3)c(C3CCCC3)c2)C(=O)O)NC(=O)[C@H](CO)NC1=O [Compound 38, NH2-c[X-R-L-S-X]c-K-G-P-cypTyr(OBn)]    678
CCCC[C@H](NC(=O)[C@@H]1CCCN1C(=O)CNC(=O)[C@H](CCCCN)NC(=O)[C@@H]1CC(=O)NCCCC[C@H](NC(=O)[C@H](CCCNC(=N)N)NC(=O)[C@@H]2CCC(=O)N2)C(=O)N[C@@H](CCCNC(=N)N)C(=O)N[C@@H](CC(C)C)C(=O)N[C@@H](CO)C(=O)N1)C(=O)N1CCC[C@H]1C(=O)N[C@@H](Cc1ccccc1)C(=O)O [Compound 17, Pyr-R-c[Lys-R-L-S-Asp]c-K-G-P-Nle-P-F] ([pGlu]RKRLSDKGP[Nle]PF-OH; lactam 3-7)    6

----------
Target: hAPJ receptor (Homo sapiens)
Construct: expressed in transfected cells; host or cells: HEK293, transient transfection with PEI
Experiment: BRET-based Gαi1 activation assay in HEK293 cells
Assay type: cell-based
Bridge positions count the residues as written; N and C are the ends. Square brackets hold non-standard residues; d marks the D form. Peptide text beside a SMILES is read from it. Nle = CCCC[C@H](N)C(=O)O
Entries and their measured EC50 follow.
propertyMeasured: EC50 (nM)

CCCC[C@H](NC(=O)[C@@H]1CCC(=O)NCCCC[C@H](N)C(=O)N[C@@H](CCCNC(=N)N)C(=O)N[C@@H](CCCNC(=N)N)C(=O)N1)C(=O)N1CCC[C@H]1C(=O)N[C@@H](CC(C)C)C(=O)N[C@@H](Cc1c[nH]cn1)C(=O)N[C@@H](CO)C(=O)N[C@@H](CCCNC(=N)N)C(=O)N[C@H](C(=O)N1CCC[C@H]1C(=O)N[C@@H](Cc1ccccc1)C(=O)N1CCC[C@H]1C(=O)O)C(C)C [Compound 72, c[K-R-R-E]-Nle-P-L-H-S-R-V-P-F-P] (H-KRRE[Nle]PLHSRVPFP-OH; lactam 1-4)    1.7
CC(C)C[C@@H]1NC(=O)[C@@H]2CCCN2C(=O)[C@@H](NC(=O)[C@H](CO)NC(=O)[C@H](CCCNC(=N)N)NC(=O)[C@H](CCCNC(=N)N)NC(=O)[C@@H]2CCC(=O)N2)CCC(=O)NCCCC[C@@H](C(=O)N[C@@H](CCCNC(=N)N)C(=O)N[C@H](C(=O)N2CCC[C@H]2C(=O)N[C@@H](Cc2ccccc2)C(=O)N2C[C@H](OCc3ccccc3)C[C@H]2C(=O)O)C(C)C)NC(=O)[C@H](Cc2c[nH]cn2)NC1=O [Compound 93, Pyr-R-R-S-[E-P-L-H-K]-R-V-P-F-Hyp(OBn)]    47

----------
Target: human APJ (hAPJ) (Homo sapiens, UniProt P35414)
Construct: expressed in transfected cells; cell membranes
Sequence (P35414 1-380): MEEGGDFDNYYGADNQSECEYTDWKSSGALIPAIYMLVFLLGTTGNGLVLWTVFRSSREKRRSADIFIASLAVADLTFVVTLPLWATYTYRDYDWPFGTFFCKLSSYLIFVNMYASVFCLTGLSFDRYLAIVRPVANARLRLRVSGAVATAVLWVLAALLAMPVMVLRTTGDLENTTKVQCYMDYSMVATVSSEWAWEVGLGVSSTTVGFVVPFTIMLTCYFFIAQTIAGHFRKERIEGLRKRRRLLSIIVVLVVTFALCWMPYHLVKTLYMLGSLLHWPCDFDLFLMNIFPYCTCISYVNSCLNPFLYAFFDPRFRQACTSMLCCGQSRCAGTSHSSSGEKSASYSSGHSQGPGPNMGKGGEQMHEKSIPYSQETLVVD
Assay: Competitive radioligand binding ([125I][Nle75,Tyr77][Pyr1]-Ape13) on membranes of HEK293 cells stably expressing human APJ
Conditions: Ki binding
pKi: −log10 of the molar value. Numbered stars: 1 amine (or outer) side, 2 acyl side, 3 side chain; on linkers, the order of the positions; unused ones are H or OH. Bridge positions count the residues as written; N and C are the ends. Square brackets hold non-standard residues; d marks the D form. Peptide text beside a SMILES is read from it. * marks the point of attachment. X3 = O=C([C@H](CCCCNCCC=[*:3])N[*:1])[*:2]; AllylGly = C=CC[C@H](N)C(=O)O; Nle = CCCC[C@H](N)C(=O)O; Ava = NCCCCC(=O)O; Bn = c1ccc(C*)cc1
# Lookup of reported pKi keyed by entry
propertyMeasured: pKi

CCCC[C@H](NC(=O)[C@@H]1CCCN1C(=O)CNC(=O)[C@H](CCCCN)NC(=O)[C@H](Cc1c[nH]cn1)NC(=O)[C@@H]1CC=CC[C@H](NC(=O)[C@@H]2CCC(=O)N2)C(=O)N2CCC[C@H]2C(=O)N[C@@H](C)C(=O)N[C@@H](CC(C)C)C(=O)N1)C(=O)N1CCC[C@H]1C(=O)N[C@@H](Cc1ccccc1)C(=O)O [Compound 6, Pyr-c[X-P-A-L-X]c-H-K-G-P-Nle-P-F]    < 5.00
CCCC[C@H](NC(=O)[C@@H]1CCCN1C(=O)CCCCNC(=O)[C@@H]1CC=CC[C@H](N)C(=O)N[C@@H](CCCNC(=N)N)C(=O)N[C@@H](CC(C)C)C(=O)N[C@@H](CO)C(=O)N1)C(=O)O [Compound 32, NH2-c[X-R-L-S-X]c-5Ava-P-Nle] (H-[AllylGly]RLS[AllylGly][Ava]P[Nle]-OH; staple 1-5)    < 5.00
N=C(N)NCCC[C@H](N)C(=O)N[C@H]1CCCCNCCC=CC[C@@H](C(=O)N[C@H](Cc2ccc(OCc3ccccc3)cc2)C(=O)O)NC(=O)[C@@H]2CCCN2C1=O [Compound 57, NH2-R-c[K(N-butenyl)-P-X]-(D-Tyr(Obn))] (H-R[X3]P[AllylGly][dY](Bn)-OH; staple 2-4)    < 5.00
